Data credit: patent US20080058263A1

Molecular target: T1, VEGFR-3-Fc (UniProt P35916 25-328)
T1 construct: domain: first three Ig domains; conditioned supernatant of 293T cells; also called VEGFR-3-Fc fusion protein; not shown: Fc fragment of the pIg vector
T1 sequence (looked up): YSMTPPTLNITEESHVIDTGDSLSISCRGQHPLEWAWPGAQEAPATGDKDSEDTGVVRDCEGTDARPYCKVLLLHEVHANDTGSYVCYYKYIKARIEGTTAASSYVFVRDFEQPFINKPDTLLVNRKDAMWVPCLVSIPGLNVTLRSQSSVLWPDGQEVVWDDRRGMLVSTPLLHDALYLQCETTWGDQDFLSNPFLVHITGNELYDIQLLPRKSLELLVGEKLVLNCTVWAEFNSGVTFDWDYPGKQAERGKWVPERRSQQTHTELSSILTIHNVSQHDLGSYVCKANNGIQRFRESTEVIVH
Assay: receptor-Fc IP

| Binder | binding result |
| --- | --- |
| 52-16 (ligand) AHYNTEILKSIDNEWRKTQCMPIETLVDIFQEFGVATNTFFKPPCVSVYRCGGCCNSEGLQCMNTSTSYLSKTLFEITVPLSQGPKPVTISFANHTSCRCMSKLD | binds |
| 12-3 (ligand) GQNHHEVVKFMDVYQRSYCHPIETLVDIFQEFGVATNTFFKPPCVSVYRCGGCCNSEGLQCVPTEESNITMQIMRIKPHQGQHIGEMSFLQHNKCECRPKKDLVFEQKLISEEDLNSAVDHHHHHH | no binding |
| 64-11 (ligand) GQNHHEVVKFMDVYQRSYCHPREVCIDVGKEFGVATNTFFKPSCVPLMRCGGCCNSEGLQCVPTEESNITMQIMRITVPLSQGPKPVTISFLQHNKCECRPKKD | no binding |
| 41-13 (ligand) AHYNTEILKFMDVYQRSYCHPREVCIDVGKEYPDEIEYIFKPSCVPLMRCGGCCNDEGLECVPTEESNITMQIMRITVPLSQGPKPVTISFANHTSCRCMSKLD | no binding |
